Target: T1, mfNPR1-mFc:hBNP complex (monkey; human, UniProt P16860 103-134)
T1 construct: also called monkey NPR1 complexed to BNP
Experiment: SPR, mAb captured, 25C
Experimental: Equilibrium dissociation constant (KD) for different NPR1 reagents binding to purified anti-NPR1 monoclonal antibodies (mAbs) were determined using a real-time surface plasmon resonance based Biacore 4000 biosensor. All binding studies were performed in 10 mM HEPES, 150 mM NaCl, 3 mM EDTA, and 0.05% v/v Surfactant Tween-20, pH 7.4 (HBS-ET) running buffer at 25° C. and 37° C. […]
parameterMeasured: pKd
Convention used: pKd is expressed as -log10 of the molar concentration.

binder	resultValue
mAb25491 (antibody, human IgG4, V domains shown) VH: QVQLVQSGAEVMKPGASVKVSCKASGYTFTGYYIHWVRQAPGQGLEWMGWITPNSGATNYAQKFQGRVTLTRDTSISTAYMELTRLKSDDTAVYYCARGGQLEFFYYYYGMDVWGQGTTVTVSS VL: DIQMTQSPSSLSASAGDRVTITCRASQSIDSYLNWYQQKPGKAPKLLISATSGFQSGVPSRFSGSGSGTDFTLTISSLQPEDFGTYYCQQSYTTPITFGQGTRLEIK	9.20

Exercise: For the binder mAb25502 (antibody, human IgG4, V domains shown) VH: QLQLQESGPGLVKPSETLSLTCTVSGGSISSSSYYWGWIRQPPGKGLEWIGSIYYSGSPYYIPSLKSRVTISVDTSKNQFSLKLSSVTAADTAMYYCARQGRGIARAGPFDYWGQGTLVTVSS VL: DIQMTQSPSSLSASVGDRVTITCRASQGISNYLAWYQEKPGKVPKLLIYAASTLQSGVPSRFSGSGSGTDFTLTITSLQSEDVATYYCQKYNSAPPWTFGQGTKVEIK , give its reported pKd.
Solution: 8.39
